# testTarget: Ba/F3 EGFR Del19/T790M mutants (Homo sapiens, UniProt P00533, T790M, cells depend on it, form not given)
# Sequence (P00533 with tags, fused parts or gaps DEL746-750/T790M, form open): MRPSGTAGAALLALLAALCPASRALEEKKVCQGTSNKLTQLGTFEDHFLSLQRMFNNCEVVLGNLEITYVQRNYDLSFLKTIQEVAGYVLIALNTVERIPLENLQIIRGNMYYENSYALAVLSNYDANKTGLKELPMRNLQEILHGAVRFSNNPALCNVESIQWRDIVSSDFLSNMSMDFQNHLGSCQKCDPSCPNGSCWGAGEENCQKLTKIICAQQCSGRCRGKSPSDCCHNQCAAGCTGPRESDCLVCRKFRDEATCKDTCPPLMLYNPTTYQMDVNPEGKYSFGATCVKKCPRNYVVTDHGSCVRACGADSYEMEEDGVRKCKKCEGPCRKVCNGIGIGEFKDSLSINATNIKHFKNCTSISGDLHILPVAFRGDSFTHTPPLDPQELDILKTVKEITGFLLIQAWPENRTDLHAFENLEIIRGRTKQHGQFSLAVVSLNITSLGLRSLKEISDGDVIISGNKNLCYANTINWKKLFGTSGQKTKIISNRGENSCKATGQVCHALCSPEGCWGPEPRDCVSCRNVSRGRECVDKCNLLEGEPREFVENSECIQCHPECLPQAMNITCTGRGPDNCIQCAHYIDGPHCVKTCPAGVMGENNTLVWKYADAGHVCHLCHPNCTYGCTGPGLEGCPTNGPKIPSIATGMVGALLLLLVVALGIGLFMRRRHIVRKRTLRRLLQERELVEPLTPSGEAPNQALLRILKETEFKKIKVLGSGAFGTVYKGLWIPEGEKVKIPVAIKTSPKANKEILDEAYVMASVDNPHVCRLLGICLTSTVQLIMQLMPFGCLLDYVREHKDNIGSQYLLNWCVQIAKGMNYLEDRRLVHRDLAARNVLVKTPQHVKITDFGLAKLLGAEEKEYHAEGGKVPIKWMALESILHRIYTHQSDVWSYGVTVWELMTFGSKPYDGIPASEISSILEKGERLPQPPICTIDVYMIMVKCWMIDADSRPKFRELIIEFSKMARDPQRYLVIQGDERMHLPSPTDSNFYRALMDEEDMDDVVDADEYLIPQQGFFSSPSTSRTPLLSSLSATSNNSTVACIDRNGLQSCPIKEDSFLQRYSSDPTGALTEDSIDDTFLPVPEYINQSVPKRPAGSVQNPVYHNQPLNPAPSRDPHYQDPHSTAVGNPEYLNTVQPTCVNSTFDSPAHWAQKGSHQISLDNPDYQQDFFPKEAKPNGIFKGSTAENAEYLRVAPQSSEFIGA
# testDescription: CellTiter-Glo cell viability, Ba/F3 EGFR Del19/T790M cells
# Type: cell-based, murine
# conditionNotes: 72 hours, read-out: Ba/F3 EGFR mutant cell (IC50, nM) D/T
# Procedure: In order to evaluate an inhibitory ability on wild-type Ba/F3 EGFR and Ba/F3 EGFR mutations in Ba/F3 cell lines by the compounds of Formula 1, the experiment was carried out as described below. The measurement of activities on Ba/F3 cells harboring wild-type EGFR and EGFR mutants by the compounds of the present invention were determined utilizing the CELLTITER-GLO™ system from Promega, as follows. […]
measureName: GI50
# output: number + unit

Provide each entry's GI50 from the list below.
1. COc1cc(N2CCC(N(C)C)CC2)c(C)cc1Nc1ncc(Br)c(Nc2cccc(OC)c2N(C)S(C)(=O)=O)n1 [Example C5]
2. CCCc1cc(Nc2ncc(Cl)c(Nc3ccc4nccnc4c3N(C)S(C)(=O)=O)n2)c(OC)cc1N1CCC(N2CCOCC2)CC1 [Example A41]

Outgoing:
["17 nM", "44 nM"]

Report GI50 for every entry below.
1. COc1ccc(Nc2nc(Nc3cc(C)c(N4CCC(N5CCCC5)CC4)cc3OC)ncc2Cl)c(NS(C)(=O)=O)c1 [Example C11]
2. CCc1cc(Nc2ncc(Br)c(Nc3ccc4c(c3N(C)S(C)(=O)=O)OCCO4)n2)c(OC)cc1N1CCC(N2CCN(C)CC2)CC1 [Example C28]

Outgoing:
["5 nM", "10 nM"]

* * *

# testTarget: Ba/F3 EGFR L858R/C797S mutants (Homo sapiens, UniProt P00533, C797S/L858R, cells depend on it)
# Sequence (P00533 whole entry C797S/L858R): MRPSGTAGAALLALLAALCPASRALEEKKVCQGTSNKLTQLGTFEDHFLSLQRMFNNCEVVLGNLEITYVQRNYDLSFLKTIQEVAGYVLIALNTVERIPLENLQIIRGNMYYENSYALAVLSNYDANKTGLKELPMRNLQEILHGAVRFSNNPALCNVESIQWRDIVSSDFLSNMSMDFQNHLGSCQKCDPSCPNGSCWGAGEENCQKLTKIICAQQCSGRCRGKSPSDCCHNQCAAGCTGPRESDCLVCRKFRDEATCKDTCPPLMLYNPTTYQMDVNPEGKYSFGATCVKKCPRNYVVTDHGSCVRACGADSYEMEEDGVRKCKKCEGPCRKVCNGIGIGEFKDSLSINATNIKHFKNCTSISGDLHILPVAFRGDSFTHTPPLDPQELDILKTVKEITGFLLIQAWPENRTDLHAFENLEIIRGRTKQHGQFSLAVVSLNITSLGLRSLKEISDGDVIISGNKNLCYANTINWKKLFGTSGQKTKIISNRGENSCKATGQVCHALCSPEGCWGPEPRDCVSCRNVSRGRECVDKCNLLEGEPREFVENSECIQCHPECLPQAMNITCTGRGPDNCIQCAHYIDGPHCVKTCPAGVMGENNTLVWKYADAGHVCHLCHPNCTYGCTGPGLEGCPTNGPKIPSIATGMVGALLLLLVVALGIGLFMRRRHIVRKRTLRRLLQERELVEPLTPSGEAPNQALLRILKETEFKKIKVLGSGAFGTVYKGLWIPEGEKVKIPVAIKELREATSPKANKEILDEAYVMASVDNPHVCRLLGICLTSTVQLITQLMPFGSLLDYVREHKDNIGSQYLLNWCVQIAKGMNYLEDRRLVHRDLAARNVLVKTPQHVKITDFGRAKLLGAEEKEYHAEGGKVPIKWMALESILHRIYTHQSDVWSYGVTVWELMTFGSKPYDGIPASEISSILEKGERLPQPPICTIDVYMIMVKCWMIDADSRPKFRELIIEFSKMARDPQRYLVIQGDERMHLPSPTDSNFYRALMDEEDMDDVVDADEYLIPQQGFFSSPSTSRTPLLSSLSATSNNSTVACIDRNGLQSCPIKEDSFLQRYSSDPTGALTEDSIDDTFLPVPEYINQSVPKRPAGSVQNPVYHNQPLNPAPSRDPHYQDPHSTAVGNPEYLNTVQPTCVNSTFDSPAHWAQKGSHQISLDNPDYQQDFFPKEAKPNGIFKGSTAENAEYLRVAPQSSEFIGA
# testDescription: CellTiter-Glo cell viability, Ba/F3 EGFR L858R/C797S cells
# Format: cell-based, murine
# conditionNotes: 72 hours, read-out: Ba/F3 EGFR mutant cell (IC50, nM) L/C
# Procedure: In order to evaluate an inhibitory ability on wild-type Ba/F3 EGFR and Ba/F3 EGFR mutations in Ba/F3 cell lines by the compounds of Formula 1, the experiment was carried out as described below. The measurement of activities on Ba/F3 cells harboring wild-type EGFR and EGFR mutants by the compounds of the present invention were determined utilizing the CELLTITER-GLO™ system from Promega, as follows. […]
measureName: GI50 (nM)
Answers are plain numbers, in nM.

For every listed record, write down its GI50.
1. CCCc1cc(Nc2ncc(Cl)c(Nc3ccc(OC)cc3NS(C)(=O)=O)n2)c(OC)cc1N1CCC(N(C)C)CC1
2. CCc1cc(Nc2ncc(Cl)c(Nc3ccc4nccnc4c3NS(C)(=O)=O)n2)c(OC)cc1N1CC2(C1)CN(C(C)C)C2

Outgoing:
[28, 59]

Please give GI50 for each item listed below.
1. CCc1cc(Nc2ncc(Br)c(Nc3ccc4c(c3N(C)S(C)(=O)=O)OCCO4)n2)c(OC)cc1N1CCC(N2CCN(C)CC2)CC1
2. COc1cc(C2CCNCC2)ccc1Nc1ncc(C2CC2)c(Nc2ccc3nccnc3c2NS(C)(=O)=O)n1

Outgoing:
1: 68; 2: 1140

* * *

# testTarget: Ba/F3 EGFR L858R/C797S mutants (Homo sapiens, UniProt P00533, C797S/L858R, cells depend on it)
# testDescription: CellTiter-Glo cell viability, Ba/F3 EGFR L858R/C797S cells
# Format: cell-based, murine
# conditionNotes: 72 hours, read-out: Ba/F3 EGFR mutant cell (IC50, nM) L/C
measureName: GI50 (nM)
One number for each entry, in nM.

COc1cc(N2CCC(N3CCCC3)CC2)c(C)cc1Nc1ncc(Cl)c(Nc2cccc(OC)c2NS(C)(=O)=O)n1	61
CCCc1cc(Nc2ncc(Cl)c(Nc3ccc4nccnc4c3N(C)S(C)(=O)=O)n2)c(OC)cc1N1CCC(N2CCCC2)CC1	80
CCc1cc(Nc2ncc(Cl)c(Nc3ccc4nccnc4c3N(C)S(C)(=O)=O)n2)c(OC)cc1N1CCC(N2CCOCC2)CC1	50
CNc1cc(N2CCC(N3CCN(C)CC3)CC2)c(C)cc1Nc1ncc(Cl)c(Nc2ccc3nccnc3c2NS(C)(=O)=O)n1	646
COc1cc(N2CCC(N(C)C)CC2)c(C)cc1Nc1ncc(Cl)c(Nc2ccc3nccnc3c2NS(C)(=O)=O)n1	14

Parameter requested: GI50. Apply to each item below.
1. CCCc1cc(Nc2ncc(F)c(Nc3ccc4nccnc4c3NS(C)(=O)=O)n2)c(OC)cc1N1CCC(N2CCN(C)CC2)CC1
2. COc1cc(N2CCC(N3CCN(C)CC3)CC2)c(C)cc1Nc1ncc(C)c(Nc2ccc3nccnc3c2NS(C)(=O)=O)n1
3. CCc1cc(Nc2ncc(Cl)c(Nc3ccc(OC)c(OC)c3N(C)S(C)(=O)=O)n2)c(OC)cc1N1CCC(N2CCOCC2)CC1

Outgoing:
1: 51; 2: 52; 3: 82
